Data credit: ChEMBL document CHEMBL5046218

Exercise: for every item that follows, state its recorded pKi.
- SYSTEM: D(3) dopamine receptor (Homo sapiens)
- Sequence (P35462 whole entry): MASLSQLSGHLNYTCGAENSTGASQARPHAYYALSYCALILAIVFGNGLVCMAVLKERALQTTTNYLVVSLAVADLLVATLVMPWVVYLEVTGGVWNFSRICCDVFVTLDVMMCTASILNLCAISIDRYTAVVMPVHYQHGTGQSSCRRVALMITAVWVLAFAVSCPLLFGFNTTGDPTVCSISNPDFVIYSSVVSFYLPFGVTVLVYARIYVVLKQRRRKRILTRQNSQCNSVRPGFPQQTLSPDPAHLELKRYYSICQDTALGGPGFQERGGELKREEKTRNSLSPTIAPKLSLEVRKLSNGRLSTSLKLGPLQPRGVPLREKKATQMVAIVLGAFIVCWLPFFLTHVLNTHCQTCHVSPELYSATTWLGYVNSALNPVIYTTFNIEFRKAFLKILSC
- TEST DESCRIPTION: Displacement of [3H]-N-methylspiperone from human dopamine D3 receptor expressed in HEK293 cell membranes incubated for 60 mins by microbeta scintillation counting analysis
- Set-up: species or system Membrane
# pKi is unitless: minus log10 of the molar concentration; print number only

Can you look up pKi on D(3) dopamine receptor (Homo sapiens) for N#CC(CCNCCC(O)CN1CCN(c2cccc(Cl)c2Cl)CC1)(c1ccccc1)c1ccccc1 (stereo not drawn) ?
6.34

Can you look up pKi on D(3) dopamine receptor (Homo sapiens) for N#CC(CCNCCc1ccccc1)(c1ccccc1)c1ccccc1 ?
5.05

Can you look up pKi on D(3) dopamine receptor (Homo sapiens) for Oc1cccc(C(CCNCCCCN2CCN(c3ccccc3)CC2)c2cccc(O)c2)c1 ?
6.60

Can you look up pKi on D(3) dopamine receptor (Homo sapiens) for CCc1cccc(N2CCN(CC(O)CCNCCC(C(=O)N(C)C)(c3ccccc3)c3ccccc3)CC2)c1Cl (stereo not drawn) ?
6.91

Can you look up pKi on D(3) dopamine receptor (Homo sapiens) for CCc1cc(Cl)c(OC)c(C(=O)NC[C@@H]2C[C@@H](OCCCCNCCC(C(=O)N(C)C)(c3ccccc3)c3ccccc3)CN2)c1O ?
8.66

Can you look up pKi on D(3) dopamine receptor (Homo sapiens) for CN(C)C(=O)C(CCN1CCc2ccc(C#N)cc2C1)(c1ccccc1)c1ccccc1 ?
5.79

Can you look up pKi on D(3) dopamine receptor (Homo sapiens) for CCc1cccc(N2CCN(CCC(c3cccc(O)c3)c3cccc(O)c3)CC2)c1Cl ?
6.70

Can you look up pKi on D(3) dopamine receptor (Homo sapiens) for CCOC(=O)/C=C1\[C@@H]2CCC[C@@]1(c1cccc(O)c1)CCN2C[C@H]1C[C@@H]1CCNC(=O)c1cc2ccccc2[nH]1 (relative stereo) ?
5.89

Can you look up pKi on D(3) dopamine receptor (Homo sapiens) for CN(C)C(=O)C(CCNCCCCN1CCc2ccc(C#N)cc2C1)(c1ccccc1)c1ccccc1 ?
5.97

Can you look up pKi on D(3) dopamine receptor (Homo sapiens) for CCOC(=O)/C=C1\[C@@H]2CCC[C@@]1(c1cccc(O)c1)CCN2CC1CC1CCNC(=O)c1cc2ccccc2[nH]1 (stereo partly drawn) ?
5.36

Can you look up pKi on D(3) dopamine receptor (Homo sapiens) for CCc1cc(Cl)c(OC)c(C(=O)NC[C@@H]2CCCN2CCC(C#N)(c2ccccc2)c2ccccc2)c1O ?
5.81

Can you look up pKi on D(3) dopamine receptor (Homo sapiens) for CCc1cccc(N2CCN(CCC(c3cccc(OC)c3)c3cccc(OC)c3)CC2)c1Cl ?
7.03

Can you look up pKi on D(3) dopamine receptor (Homo sapiens) for N#CC(CCN1CCN(c2cccc(Cl)c2Cl)CC1)(c1ccccc1)c1ccccc1 ?
5.65

Can you look up pKi on D(3) dopamine receptor (Homo sapiens) for N#CC(CCNCCCCC(=O)N1CCN(c2cccc(Cl)c2Cl)CC1)(c1ccccc1)c1ccccc1 ?
5.87

Can you look up pKi on D(3) dopamine receptor (Homo sapiens) for O=C(NCCCCN1CC[C@]2(c3cccc(O)c3)CCC[C@H]1[C@@H]2O)c1cc2ccccc2[nH]1 ?
5.25

* * *

- SYSTEM: D(2) dopamine receptor (Homo sapiens, UniProt P14416)
- Sequence (P14416 whole entry): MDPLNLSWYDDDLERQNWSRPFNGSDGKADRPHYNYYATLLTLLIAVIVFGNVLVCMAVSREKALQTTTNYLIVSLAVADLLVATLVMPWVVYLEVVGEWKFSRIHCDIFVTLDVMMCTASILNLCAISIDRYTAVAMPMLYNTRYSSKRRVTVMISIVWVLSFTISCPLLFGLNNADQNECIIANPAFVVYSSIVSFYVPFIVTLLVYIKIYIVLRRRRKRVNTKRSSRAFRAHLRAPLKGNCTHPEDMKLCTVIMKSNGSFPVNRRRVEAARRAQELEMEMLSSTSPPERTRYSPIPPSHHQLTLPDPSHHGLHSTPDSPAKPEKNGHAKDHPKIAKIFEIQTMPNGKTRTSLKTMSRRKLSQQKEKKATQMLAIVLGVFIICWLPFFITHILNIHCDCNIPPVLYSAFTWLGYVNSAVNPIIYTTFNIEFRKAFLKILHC
- TEST DESCRIPTION: Displacement of [3H]-N-methylspiperone from human dopamine D2 receptor expressed in HEK293 cell membranes incubated for 60 mins by microbeta scintillation counting analysis
- Design: species or system Membrane
Threshold-based label: Ki under 0.2 µM gives class 1, Ki not under 0.2 µM gives class 0.

Take the compound CN(C)C(=O)C(CCN1CCc2ccc(C#N)cc2C1)(c1ccccc1)c1ccccc1 and say whether its Ki is less than 0.2 µM.
class 0

Take the compound CCc1cccc(N2CCN(CCC(c3cccc(O)c3)c3cccc(O)c3)CC2)c1Cl and say whether its Ki is less than 0.2 µM.
class 1

Take the compound Oc1cccc([C@@]23CCC[C@@H]([C@H]2O)N(C/C=C/c2ccccc2)CC3)c1 and say whether its Ki is less than 0.2 µM.
class 0

Take the compound CN(C)CCC(C(=O)NCCCCN1CCN(c2cccc(Cl)c2Cl)CC1)(c1ccccc1)c1ccccc1 and say whether its Ki is less than 0.2 µM.
class 1

Take the compound N#CC(CCNCCc1ccccc1)(c1ccccc1)c1ccccc1 and say whether its Ki is less than 0.2 µM.
class 0

Take the compound CCc1cc(Cl)c(OC)c(C(=O)NCC2CCCN2CC(=O)N2CCC(c3ccccc3)(c3ccccc3)C2)c1O (stereo not given) and say whether its Ki is less than 0.2 µM.
class 0

Take the compound COc1cccc(C(=CCNCCCCN2CCN(c3cccc(Cl)c3Cl)CC2)c2cccc(OC)c2)c1 and say whether its Ki is less than 0.2 µM.
class 0

Take the compound Oc1cccc([C@]23CCC[C@H](NCC2)[C@@H]3O)c1 and say whether its Ki is less than 0.2 µM.
class 0

Take the compound CCc1cccc(N2CCN(CCC(c3cccc(O)c3)c3cccc(OC)c3)CC2)c1Cl (stereo not given) and say whether its Ki is less than 0.2 µM.
class 1

Take the compound CN(C)CCC(C(=O)N(C)C)(c1ccccc1)c1ccccc1 and say whether its Ki is less than 0.2 µM.
class 0

Take the compound CCc1cccc(N2CCN(CCCCNCCC(C(=O)N(C)C)(c3ccccc3)c3ccccc3)CC2)c1Cl and say whether its Ki is less than 0.2 µM.
class 1

Take the compound Oc1cccc(C(CCNCCCCN2CCN(c3ccccc3)CC2)c2cccc(O)c2)c1 and say whether its Ki is less than 0.2 µM.
class 0

Take the compound CCc1cc(Cl)c(OC)c(C(=O)NC[C@@H]2CCCN2CCCCNCCC(C(=O)N(C)C)(c2ccccc2)c2ccccc2)c1O and say whether its Ki is less than 0.2 µM.
class 0

Take the compound CN1CCC(c2ccccc2)(c2ccccc2)C1 and say whether its Ki is less than 0.2 µM.
class 0

Take the compound CCc1cccc(N2CCN(CCC(c3cccc(OC)c3)c3cccc(OC)c3)CC2)c1Cl and say whether its Ki is less than 0.2 µM.
class 1

Take the compound CN(C)C(=O)C(CCN1CCN(c2cccc(Cl)c2Cl)CC1)(c1ccccc1)c1ccccc1 and say whether its Ki is less than 0.2 µM.
class 1

Take the compound N#CC(CCNCCC(O)CN1CCN(c2cccc(Cl)c2Cl)CC1)(c1ccccc1)c1ccccc1 (stereo not given) and say whether its Ki is less than 0.2 µM.
class 0

Take the compound CN(C)CCC(C#N)(c1ccccc1)c1ccccc1 and say whether its Ki is less than 0.2 µM.
class 0

Take the compound CCc1cc(Cl)c(OC)c(C(=O)NCC2CCCN2CCCCNCCC(C(=O)N(C)C)(c2ccccc2)c2ccccc2)c1O (stereo not given) and say whether its Ki is less than 0.2 µM.
class 0

Take the compound CCOC(=O)/C=C1\[C@@H]2CCC[C@@]1(c1cccc(O)c1)CCN2CCN1CCN(c2cccc(Cl)c2Cl)CC1 and say whether its Ki is less than 0.2 µM.
class 1

* * *

- SYSTEM: D(4) dopamine receptor (Homo sapiens)
- Sequence (P21917 whole entry): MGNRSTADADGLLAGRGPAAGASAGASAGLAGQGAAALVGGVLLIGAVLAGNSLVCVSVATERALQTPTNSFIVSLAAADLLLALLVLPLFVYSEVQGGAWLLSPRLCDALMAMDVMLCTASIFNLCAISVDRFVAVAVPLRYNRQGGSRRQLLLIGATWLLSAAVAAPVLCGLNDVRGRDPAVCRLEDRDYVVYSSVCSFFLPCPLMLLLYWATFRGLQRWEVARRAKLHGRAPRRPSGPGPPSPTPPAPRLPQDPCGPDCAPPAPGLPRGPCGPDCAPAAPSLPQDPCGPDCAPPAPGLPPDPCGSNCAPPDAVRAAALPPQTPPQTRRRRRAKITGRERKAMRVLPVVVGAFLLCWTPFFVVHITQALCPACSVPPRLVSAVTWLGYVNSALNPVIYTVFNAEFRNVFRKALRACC
Exercise: for every item that follows, state its recorded Ki.
The reply should contain only the number, in µM.

So what does the record say about Ki for CN(C)C(=O)C(CCNCCCCN1CCc2ccc(C#N)cc2C1)(c1ccccc1)c1ccccc1 ?
58.9

So what does the record say about Ki for CCc1cccc(N2CCN(CCCCNCCC(C(=O)N(C)C)(c3ccccc3)c3ccccc3)CC2)c1Cl ?
0.503

So what does the record say about Ki for CCOC(=O)/C=C1\[C@@H]2CCC[C@@]1(c1cccc(O)c1)CCN2C[C@H]1C[C@@H]1CCNC(=O)c1cc2ccccc2[nH]1 (relative stereo) ?
29.2

So what does the record say about Ki for COc1cccc(C(=CCNCCCCN2CCN(c3cccc(Cl)c3Cl)CC2)c2cccc(OC)c2)c1 ?
26.1

So what does the record say about Ki for N#CC(CCN1CCN(c2cccc(Cl)c2Cl)CC1)(c1ccccc1)c1ccccc1 ?
8.49

So what does the record say about Ki for CCOC(=O)/C=C1\[C@@H]2CCC[C@@]1(c1cccc(O)c1)CCN2C[C@@H]1C[C@H]1CCNC(=O)c1cc2ccccc2[nH]1 (relative stereo) ?
17.6
